Below, each entry is listed with its recorded Emax.
TARGET ENTITY: human mGlu5a receptor (Homo sapiens, UniProt P41594)
Sequence (P41594 21-1180 isoform P41594-2 limits assumed): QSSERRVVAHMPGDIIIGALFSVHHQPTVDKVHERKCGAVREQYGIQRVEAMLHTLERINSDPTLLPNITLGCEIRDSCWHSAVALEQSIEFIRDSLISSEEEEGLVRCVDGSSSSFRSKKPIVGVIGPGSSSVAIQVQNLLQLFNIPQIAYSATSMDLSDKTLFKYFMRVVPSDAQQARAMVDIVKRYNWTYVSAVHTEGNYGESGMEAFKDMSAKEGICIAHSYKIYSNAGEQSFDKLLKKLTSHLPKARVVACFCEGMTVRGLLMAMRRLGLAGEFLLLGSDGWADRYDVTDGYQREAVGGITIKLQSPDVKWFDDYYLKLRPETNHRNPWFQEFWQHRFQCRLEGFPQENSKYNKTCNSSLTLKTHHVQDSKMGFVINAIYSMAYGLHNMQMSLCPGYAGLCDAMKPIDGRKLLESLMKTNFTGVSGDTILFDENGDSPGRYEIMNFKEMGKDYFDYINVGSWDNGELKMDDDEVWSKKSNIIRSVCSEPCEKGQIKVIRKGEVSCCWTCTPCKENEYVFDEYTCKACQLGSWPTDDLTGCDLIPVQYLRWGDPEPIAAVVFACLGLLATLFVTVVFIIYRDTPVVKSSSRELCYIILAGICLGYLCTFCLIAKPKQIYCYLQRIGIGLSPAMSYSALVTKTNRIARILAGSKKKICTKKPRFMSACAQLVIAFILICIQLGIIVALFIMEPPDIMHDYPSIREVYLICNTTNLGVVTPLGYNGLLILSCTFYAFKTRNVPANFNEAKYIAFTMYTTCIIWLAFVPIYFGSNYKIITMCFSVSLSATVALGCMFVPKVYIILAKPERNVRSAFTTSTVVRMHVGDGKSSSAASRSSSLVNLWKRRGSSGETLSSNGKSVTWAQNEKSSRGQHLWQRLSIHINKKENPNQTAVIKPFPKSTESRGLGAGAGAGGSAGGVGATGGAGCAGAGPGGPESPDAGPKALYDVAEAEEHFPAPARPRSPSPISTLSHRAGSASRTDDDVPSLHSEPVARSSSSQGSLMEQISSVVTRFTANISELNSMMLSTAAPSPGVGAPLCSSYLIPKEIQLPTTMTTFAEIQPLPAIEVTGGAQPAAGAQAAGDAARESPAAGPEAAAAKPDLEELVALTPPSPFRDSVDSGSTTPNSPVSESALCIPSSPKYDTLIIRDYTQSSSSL
ASSAY EXPLANATION: Intracellular Ca2+ mobilization assay (mGlu5 PAM)
Format: cell-based
Design: expressed in transfected cells
PARTICULARS: HEK293; maximal response in % of maximal stimulatory effect of saturating L-glutamate; HEK-293 human mGlu5a; read-out: Eff. (%)
OUTCOME MEASURE: Emax (%)

# COMPOUND, QUANTITATIVE RESULT
records = [
    ("CN1N(c2ncc(C#Cc3cc(F)ccc3F)cn2)C(=O)CC1(C)C [Example 17]", 47),
    ("CN1N(c2ncc(C#Cc3ccc(F)cc3)cn2)C(=O)CC1(C)C [Example 16]", 69),
    ("CC(C)C1CC(=O)N(c2ccc(C#Cc3ccccc3)cn2)N1 (racemic) [Example 2]", 73),
    ("CN1N(c2ccc(C#Cc3cccc(Cl)c3)cn2)C(=O)CC1(C)C [Example 7]", 55),
    ("CN1N(c2ncc(C#Cc3ccccc3)cn2)C(=O)CC1(C)C [Example 14]", 66),
    ("CC1(C)CC(=O)N(c2ccc(C#Cc3ccccc3)cn2)N1 [Example 1]", 60),
    ("CC1(C)CC(=O)N(c2ncc(C#Cc3ccccc3)cn2)N1 [Example 9]", 39),
    ("O=C1CC2CCCN2N1c1ccc(C#Cc2ccccc2)cn1 (racemic) [Example 10]", 73),
    ("CN1N(c2ncc(C#Cc3cccc(F)c3)cn2)C(=O)CC1(C)C [Example 15]", 61),
    ("CC1(C(F)(F)F)CC(=O)N(c2ccc(C#Cc3ccccc3)cn2)N1 (racemic) [Example 24]", 92),
    ("O=C1CC2CCCN2N1c1ncc(C#Cc2ccccc2)cn1 (racemic) [Example 11]", 55),
]

###

TARGET ENTITY: human mGlu5a receptor (Homo sapiens)
ASSAY EXPLANATION: Intracellular Ca2+ mobilization assay (mGlu5 PAM)
Assay type: cell-based
Design: expressed in transfected cells
PARTICULARS: HEK293; maximal response in % of maximal stimulatory effect of saturating L-glutamate; HEK-293 human mGlu5a; read-out: Eff. (%)
Threshold 70%: Emax strictly smaller gives Met, otherwise Not met.

# COMPOUND, TARGET ENTITY, CAT
data = [
    ("O=C1CC2CCCN2N1c1ncc(C#Cc2ccc(F)cc2)cn1 (racemic)", "human mGlu5a receptor (Homo sapiens)", "Met"),
    ("O=C1CC2CCCN2N1c1ncc(C#Cc2cccc(F)c2)cn1 (racemic)", "human mGlu5a receptor (Homo sapiens)", "Met"),
    ("CN1N(c2ccc(C#Cc3cccc(F)c3)cn2)C(=O)CC1(C)C", "human mGlu5a receptor (Homo sapiens)", "Not met"),
    ("CCN1C(C(C)C)CC(=O)N1c1ccc(C#Cc2ccccc2)cn1 (racemic)", "human mGlu5a receptor (Homo sapiens)", "Met"),
    ("CN1N(c2ccc(C#Cc3ccccc3)cn2)C(=O)CC1(C)C", "human mGlu5a receptor (Homo sapiens)", "Not met"),
    ("CC1(C)CC(=O)N(c2ccc(C#Cc3ccc(F)cc3)cn2)N1", "human mGlu5a receptor (Homo sapiens)", "Met"),
    ("CC1(C)CC(=O)N(c2ccc(C#Cc3cc(F)ccc3F)nn2)N1", "human mGlu5a receptor (Homo sapiens)", "Not met"),
    ("CC1(C)CC(=O)N(c2ccc(C#Cc3cccc(F)c3)cn2)N1", "human mGlu5a receptor (Homo sapiens)", "Met"),
]
